- target_or_system: HIV-1 envelope glycoprotein gp120 (IIIB) (HIV-1 IIIB (HXB2 clone entry), UniProt P04578)
- assay_procedure: cell-based or functional assay
Here, each record is paired with measured IC50 of neutralisation of HIV-1 IIIB in TZM-bl cells, Average data.
Expressed in µg/mL, but write only the number.

As a guide, the following entries are already answered.
- binder: "VHH D7 Trp96→Ala (VHH, PDB 2xa3 holds D7 with five framework changes) with the stated CDR3 mutation; Chothia numbering) VHH: AVQLVESGGGLAQAGGSLRLSCTVSGRTSSSHDMGWFRQAPGKEREFVAAISWSGGTTNYADSVKGRFAISKDNAKNAVSLQMNSLKPEDTAVYYCAAKARPLRYSDNPSNSDYNYWGQGTQVTVSS"
  unit_tag: "µg/mL"
  observed_result: 2.6
- binder: "VHH D7 Asp100C→Ala (VHH, PDB 2xa3 holds D7 with five framework changes) with the stated CDR3 mutation; Chothia numbering (100C is an insertion position)) VHH: AVQLVESGGGLAQAGGSLRLSCTVSGRTSSSHDMGWFRQAPGKEREFVAAISWSGGTTNYADSVKGRFAISKDNAKNAVSLQMNSLKPEDTAVYYCAAKWRPLRYSANPSNSDYNYWGQGTQVTVSS"
  unit_tag: "µg/mL"
  observed_result: 0.027
- binder: "VHH D7 Lys95→Ser (VHH, PDB 2xa3 holds D7 with five framework changes) with the stated CDR3 mutation; Chothia numbering) VHH: AVQLVESGGGLAQAGGSLRLSCTVSGRTSSSHDMGWFRQAPGKEREFVAAISWSGGTTNYADSVKGRFAISKDNAKNAVSLQMNSLKPEDTAVYYCAASWRPLRYSDNPSNSDYNYWGQGTQVTVSS"
  unit_tag: "µg/mL"
  observed_result: 3
- binder: "llama heavy chain antibody fragment VHH D7, wild type (VHH, PDB 2xa3 holds D7 with the framework changes Val5Gln, Ala11Val, Ala61Val, Ala68Asp and Ser79Tyr against wild type D7) VHH: AVQLVESGGGLAQAGGSLRLSCTVSGRTSSSHDMGWFRQAPGKEREFVAAISWSGGTTNYADSVKGRFAISKDNAKNAVSLQMNSLKPEDTAVYYCAAKWRPLRYSDNPSNSDYNYWGQGTQVTVSS"
  unit_tag: "µg/mL"
  observed_result: 0.054
- binder: "VHH D7 Tyr100A→Ala (VHH, PDB 2xa3 holds D7 with five framework changes) with the stated CDR3 mutation; Chothia numbering (100A is an insertion position)) VHH: AVQLVESGGGLAQAGGSLRLSCTVSGRTSSSHDMGWFRQAPGKEREFVAAISWSGGTTNYADSVKGRFAISKDNAKNAVSLQMNSLKPEDTAVYYCAAKWRPLRASDNPSNSDYNYWGQGTQVTVSS"
  unit_tag: "µg/mL"
  observed_result: 0.023

Prompt: Annotate the binder VHH D7 double mutant Asn101→Tyr/Tyr102→Asp (VHH, PDB 2xa3 holds D7 with five framework changes) with the stated CDR3 mutations; Chothia numbering; also called double mutant Asn^101Tyr^102) VHH: AVQLVESGGGLAQAGGSLRLSCTVSGRTSSSHDMGWFRQAPGKEREFVAAISWSGGTTNYADSVKGRFAISKDNAKNAVSLQMNSLKPEDTAVYYCAAKWRPLRYSDNPSNSDYYDWGQGTQVTVSS with its measured IC50 of neutralisation of HIV-1 IIIB in TZM-bl cells, Average.
Response: 0.011

Prompt: Please indicate IC50 of neutralisation of HIV-1 IIIB in TZM-bl cells, Average recorded for VHH D7 Leu99→Ala (VHH, PDB 2xa3 holds D7 with five framework changes) with the stated CDR3 mutation; Chothia numbering) VHH: AVQLVESGGGLAQAGGSLRLSCTVSGRTSSSHDMGWFRQAPGKEREFVAAISWSGGTTNYADSVKGRFAISKDNAKNAVSLQMNSLKPEDTAVYYCAAKWRPARYSDNPSNSDYNYWGQGTQVTVSS
Response: 0.69

Data origin, for the record: paper PMC2864739
